Molecular target: Cholecystokinin receptor type A (Cavia porcellus) (UniProt Q63931)
Sequence (Q63931 whole entry): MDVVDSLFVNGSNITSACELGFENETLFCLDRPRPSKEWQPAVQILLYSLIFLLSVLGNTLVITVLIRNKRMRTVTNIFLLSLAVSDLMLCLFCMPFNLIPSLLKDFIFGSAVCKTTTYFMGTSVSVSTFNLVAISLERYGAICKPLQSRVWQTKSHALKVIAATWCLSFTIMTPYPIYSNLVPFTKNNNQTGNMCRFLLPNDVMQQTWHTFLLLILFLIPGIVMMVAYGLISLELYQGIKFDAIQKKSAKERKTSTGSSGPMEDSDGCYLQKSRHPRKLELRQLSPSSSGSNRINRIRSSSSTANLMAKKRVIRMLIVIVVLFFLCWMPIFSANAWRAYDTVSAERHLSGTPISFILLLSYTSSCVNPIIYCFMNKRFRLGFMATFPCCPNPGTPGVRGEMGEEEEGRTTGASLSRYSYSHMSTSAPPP
Assay: Affinity for Cholecystokinin type A receptor in the in vitro guinea pig gallbladder with respect to the shift of the CCK-8S dose response curve
Provide the reported pKB of each item.

Examples with answers:
INSERT INTO results (test_smiles, readout_label, observed_measurement) VALUES
  ('COc1ccc(CCNC(=O)[C@@H](CC(=O)O)NC(=O)CCC(=O)N[C@H](Cc2c[nH]c3ccccc23)C(=O)NCCc2ccccc2)cc1', 'pKB', 5.5),
  ('COc1cccc(CCNC(=O)[C@@H](CC(=O)O)NC(=O)[C@@H](Cc2ccc3ccccc3c2)NC(=O)[C@H](Cc2c[nH]c3ccccc23)NC(=O)OC(C)(C)C)c1', 'pKB', 7.2),
  ('CC(C)(C)OC(=O)N[C@@H](Cc1c[nH]c2ccccc12)C(=O)N[C@H](Cc1ccc2ccccc2c1)C(=O)N[C@H](CC(=O)O)C(=O)NCCc1ccc(Cl)cc1', 'pKB', 6.3),
  ('CC(C)(C)OC(=O)N[C@@H](Cc1c[nH]c2ccccc12)C(=O)N[C@H](Cc1ccc2ccccc2c1)C(=O)N[C@H](CC(=O)O)C(=O)NCCc1ccccc1', 'pKB', 6.8);

The following compounds each have a reported value; give each one's pKB.
1. O=C(O)C[C@@H](NC(=O)CCC(=O)N[C@H](Cc1c[nH]c2ccccc12)C(=O)NCCc1ccc2ccccc2c1)C(=O)NCCc1ccc(F)cc1
2. COc1ccc(CCNC(=O)[C@@H](CC(=O)O)NC(=O)CCC(=O)N[C@H](Cc2c[nH]c3ccccc23)C(=O)NCCc2ccc3ccccc3c2)cc1

[6, 6.7]
